TARGET SYSTEM: Msn1 (UniProt P22148)
Sequence: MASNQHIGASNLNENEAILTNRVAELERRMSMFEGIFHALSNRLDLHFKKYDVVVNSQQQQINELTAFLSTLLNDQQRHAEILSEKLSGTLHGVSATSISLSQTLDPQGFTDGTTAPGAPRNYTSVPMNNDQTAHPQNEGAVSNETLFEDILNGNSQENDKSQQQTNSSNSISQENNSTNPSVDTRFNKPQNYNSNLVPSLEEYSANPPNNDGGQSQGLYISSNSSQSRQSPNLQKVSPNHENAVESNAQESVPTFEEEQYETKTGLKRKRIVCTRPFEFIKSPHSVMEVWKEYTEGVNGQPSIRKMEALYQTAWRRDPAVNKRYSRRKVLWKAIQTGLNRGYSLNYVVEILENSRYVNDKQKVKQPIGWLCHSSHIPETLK
PROTOCOL DETAILS: PBM E-score (8-mer binding enrichment) (E-score (-0.5 to 0.5)); higher = stronger / more preferred TF binding
PROTOCOL CONDITIONS: protein concentration: 200 nM; construct: GST-full length
The full ranking holds about 33,000 sequences; the median of “E-score (-0.5 to 0.5)” is about -0.013, and the highest 2% start at about 0.3. The list comes from a sample in which the highest values are over-represented; it also holds close analogues and randomly drawn sequences.
RESULT TYPE: PBM E-score
Write no unit; give the number alone.

Some sequences with known PBM E-score results, for comparison:
[[record]]
residues = "ATAAAATG"
target_system = "Msn1 (UniProt P22148)"
result_type = "PBM E-score"
meas_value = 0.341

[[record]]
residues = "CAGCAGAC"
target_system = "Msn1 (UniProt P22148)"
result_type = "PBM E-score"
meas_value = 0.0732

[[record]]
residues = "CGATAACC"
target_system = "Msn1 (UniProt P22148)"
result_type = "PBM E-score"
meas_value = 0.0193

[[record]]
residues = "CAAGGGCG"
target_system = "Msn1 (UniProt P22148)"
result_type = "PBM E-score"
meas_value = -0.191


Fill in: Msn1 (UniProt P22148) PBM E-score for CATTGCGA = -0.0316

Fill in: Msn1 (UniProt P22148) PBM E-score for CGGGAGGA = -0.0135

Fill in: Msn1 (UniProt P22148) PBM E-score for GGAACCCC = -0.334

Fill in: Msn1 (UniProt P22148) PBM E-score for ACGTGTCG = 0.0594

Fill in: Msn1 (UniProt P22148) PBM E-score for ATTGCCGG = -0.0182
